# target-under-test: Vaccinia-related kinase 1 (VRK1) (Homo sapiens, UniProt Q99986)
# Sequence (Q99986 whole entry): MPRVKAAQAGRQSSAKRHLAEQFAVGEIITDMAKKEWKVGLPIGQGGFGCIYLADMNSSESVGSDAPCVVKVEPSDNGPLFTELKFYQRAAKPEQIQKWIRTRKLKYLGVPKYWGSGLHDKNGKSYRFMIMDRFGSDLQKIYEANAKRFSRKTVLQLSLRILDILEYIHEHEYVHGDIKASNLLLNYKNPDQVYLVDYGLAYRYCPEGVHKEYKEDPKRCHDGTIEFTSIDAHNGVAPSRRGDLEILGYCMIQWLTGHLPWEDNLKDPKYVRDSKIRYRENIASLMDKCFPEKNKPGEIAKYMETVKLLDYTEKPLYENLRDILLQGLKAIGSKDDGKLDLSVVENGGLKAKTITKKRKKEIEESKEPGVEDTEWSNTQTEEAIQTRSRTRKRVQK
# protocol-text: biochemical
# Assay type: binding

{"compound": "O=c1cc(-c2ccc(O)c(O)c2)oc2cc(O)cc(O)c12 [luteolin, 3′,4′,5,7-tetrahydroxyflavone]", "unit-of-measure": "µM", "Kd": 5.8}

###

Reported Kd values are given for each entry in this list.
# target-under-test: Vaccinia-related kinase 1 (VRK1) (Homo sapiens, UniProt Q99986)
# protocol-text: biochemical
# Format: binding

{"compound": "COc1ccc(-c2cc(=O)c3c(O)c(OC)c(O)cc3o2)cc1OC [eupatilin]", "target-under-test": "Vaccinia-related kinase 1 (VRK1) (Homo sapiens, UniProt Q99986)", "unit-of-measure": "µM", "Kd": 184}
{"compound": "COc1c(O)cc(O)c2c(=O)cc(-c3ccccc3)oc12 [wogonin]", "target-under-test": "Vaccinia-related kinase 1 (VRK1) (Homo sapiens, UniProt Q99986)", "unit-of-measure": "µM", "Kd": 120}
